target: Serotonin 2 receptors; 5-HT2a & 5-HT2c (Homo sapiens) (UniProt P28223+P28335); assay: Relative affinity for 5-HT2C over 5-HT2A receptors; type: protein assay
Sequence (P28223 whole entry, looked up, one chain of several): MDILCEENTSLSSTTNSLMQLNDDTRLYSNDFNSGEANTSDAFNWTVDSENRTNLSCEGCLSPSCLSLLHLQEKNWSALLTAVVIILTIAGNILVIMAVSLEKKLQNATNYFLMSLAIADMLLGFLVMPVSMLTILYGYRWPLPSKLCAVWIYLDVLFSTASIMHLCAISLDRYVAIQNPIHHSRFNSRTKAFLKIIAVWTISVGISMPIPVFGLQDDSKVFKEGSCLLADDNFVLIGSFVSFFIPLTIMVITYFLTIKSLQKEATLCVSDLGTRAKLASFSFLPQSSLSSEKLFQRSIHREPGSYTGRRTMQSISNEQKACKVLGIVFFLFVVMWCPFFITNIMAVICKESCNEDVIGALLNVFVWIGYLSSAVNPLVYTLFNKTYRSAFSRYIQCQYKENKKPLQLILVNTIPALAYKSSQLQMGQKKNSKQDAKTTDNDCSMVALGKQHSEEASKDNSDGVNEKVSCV
Think of 10 as a floor: if Ratio stands on it or above, it is 1 (yes); beneath it, 0 (no).

Solved cases below.
Nc1nc(SCCN2CCN(Cc3cccc(C(F)(F)F)c3)CC2)nc(N)c1Cc1ccccc1O
1 (yes)
COc1ccccc1Cc1c(N)nc(SCCN2CCN(Cc3cccc(C(F)(F)F)c3)CC2)nc1N
1 (yes)
COc1ccc(Cc2c(N)nc(SCCN3CCN(Cc4ccccc4Cl)CC3)nc2N)cc1
0 (no)
COc1cccc(Cc2c(N)nc(SCCN3CCN(Cc4cccc(C(F)(F)F)c4)CC3)nc2N)c1
0 (no)

[in] Say whether Nc1nc(SCCN2CCN(Cc3ccccc3Cl)CC2)nc(N)c1Cc1ccccc1Cl shows Ratio of 10 or more.
[out] 0 (no)

###

Ratio values for the molecules below.
molecular target: Serotonin 2 receptors; 5-HT2a & 5-HT2c (Homo sapiens) (UniProt P28223+P28335); assay: Relative affinity for 5-HT2C over 5-HT2A receptors; assay type: protein assay
# respond with the number and nothing more

See these solved cases before continuing.
COc1ccccc1Cc1c(N)nc(SCCN2CCN(Cc3ccccc3C(F)(F)F)CC2)nc1N
6.2
COc1cc(Cc2c(N)nc(SCCN3CCN(Cc4ccccc4Cl)CC3)nc2N)cc(OC)c1OC
0.2
CCOc1ccccc1Cc1c(N)nc(SCCN2CCN(Cc3cccc(C(F)(F)F)c3)CC2)nc1N
7.7
Nc1nc(SCCN2CCN(Cc3ccccc3C(F)(F)F)CC2)nc(N)c1Cc1ccccc1
2.9
COc1ccc(Cc2c(N)nc(SCCN3CCN(Cc4ccc(C)cc4)CC3)nc2N)cc1
0.04
Nc1nc(SCCN2CCN(Cc3ccccc3Cl)CC2)nc(N)c1Cc1ccccc1O
4.2

[in] // returns reported Ratio for input CC(C)Oc1ccccc1Cc1c(N)nc(SCCN2CCN(Cc3cccc(C(F)(F)F)c3)CC2)nc1N
[out] 14

[in] Then Nc1nc(SCCN2CCN(Cc3ccccc3Cl)CC2)nc(N)c1Cc1ccccc1 ?
[out] 1.5

[in] Now try COc1ccc(Cc2c(N)nc(SCCN3CCN(Cc4ccccc4C)CC3)nc2N)cc1 .
[out] 0.7

###

// endpoint pKi / system 5-hydroxytryptamine receptor 2A (Homo sapiens, UniProt P28223)
# pKi: negative log10 of molar concentration; output just the value

Below are worked cases with known answers.
CC(C)Oc1ccccc1Cc1c(N)nc(SCCN2CCN(Cc3cccc(C(F)(F)F)c3)CC2)nc1N
6.92
Nc1nc(SCCN2CCN(Cc3ccccc3Cl)CC2)nc(N)c1Cc1ccccc1
7.74
COc1ccc(Cc2c(N)nc(SCCN3CCN(Cc4ccccc4C)CC3)nc2N)cc1
7.94
Nc1nc(SCCN2CCN(Cc3ccccc3C(F)(F)F)CC2)nc(N)c1Cc1ccccc1
7.21
COc1ccc(Cc2c(N)nc(SCCN3CCN(Cc4ccccc4Cl)CC3)nc2N)cc1
8.24
COc1ccccc1Cc1c(N)nc(SCCN2CCN(Cc3cccc(C(F)(F)F)c3)CC2)nc1N
7.22

[in] Looking for the measured pKi of CCOc1ccccc1Cc1c(N)nc(SCCN2CCN(Cc3cccc(C(F)(F)F)c3)CC2)nc1N , can you help?
[out] 7.16

[in] Here is the next compound: COc1cc(Cc2c(N)nc(SCCN3CCN(Cc4ccccc4Cl)CC3)nc2N)cc(OC)c1OC
[out] 8.37

[in] For Nc1nc(SCCN2CCN(Cc3cccc(C(F)(F)F)c3)CC2)nc(N)c1Cc1ccccc1O then?
[out] 7.03

###

Protein target, amino acids: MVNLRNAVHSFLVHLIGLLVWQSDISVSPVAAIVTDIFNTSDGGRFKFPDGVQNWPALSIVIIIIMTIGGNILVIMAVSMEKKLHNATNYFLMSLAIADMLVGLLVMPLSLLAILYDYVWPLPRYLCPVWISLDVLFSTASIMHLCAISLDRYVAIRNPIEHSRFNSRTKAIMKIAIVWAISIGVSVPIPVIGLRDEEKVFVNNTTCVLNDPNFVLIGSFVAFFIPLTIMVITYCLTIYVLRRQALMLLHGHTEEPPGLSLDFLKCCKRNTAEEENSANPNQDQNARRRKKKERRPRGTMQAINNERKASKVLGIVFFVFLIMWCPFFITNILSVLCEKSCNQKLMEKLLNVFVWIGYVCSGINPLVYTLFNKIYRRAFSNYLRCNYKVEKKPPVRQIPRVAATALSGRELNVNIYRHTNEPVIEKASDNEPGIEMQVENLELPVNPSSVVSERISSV
Ki values by entry
Numeric only. Scale: nM

// known answers, use as guide
COc1ccc(Cc2c(N)nc(SCCN3CCN(Cc4ccccc4C)CC3)nc2N)cc1
16.4
Nc1nc(SCCN2CCN(Cc3ccccc3Cl)CC2)nc(N)c1Cc1ccccc1O
5.5

[in] I'd like to know its Ki. The compound in question is COc1ccc(Cc2c(N)nc(SCCN3CCN(Cc4ccccc4Cl)CC3)nc2N)cc1
[out] 10.4

[in] And then CC(C)Oc1ccccc1Cc1c(N)nc(SCCN2CCN(Cc3cccc(C(F)(F)F)c3)CC2)nc1N , what is it?
[out] 8.6
